B1: library; a variant is named by its letters at N, in order (parent)
chain: ACATTTGTTGATACAACCATAAAATGATAATTACACCCATAAATTGATAATTATCACACCCANNNNNNNNNNNNNNCTCTGATCATAGTCAGACCAACATTGCTACGACCCGTATTCGCACCGACAC

Variants of: B1
PROCEDURE_SUMMARY: relative integration efficiency (T-RL orientation) vs wild-type transposon end (log2 (normalized fold change)); transposon end mutated: right end (5 bp flank + 75 bp right end); higher = more efficient transposition
CONDITION_DETAILS: with VchCAST RNA-guided transposition machinery (E. coli BL21(DE3) host, lacZ target)
Here the recorded relative integration efficiency (log2) is given for each entry.
Output spec: single numeric token, no unit.

A selection of reference data follows.
# VARIANT_KEY, VAL
rows = [
    ("TAAATTGATATTGA C77A", 0.00362),
    ("TATTTTGATATTGC", -0.123),
    ("ATTTAACTATAACG G26C", -2.84),
    ("ATTTAACTATAACG T44A", -0.682),
    ("TAAATTGATATTGC T40G", -0.896),
    ("AAAATTGATATTGC", -0.0332),
    ("TAAATTGATATTGC A22C", -0.874),
    ("ATTTAACTATAACG T48C", -1.24),
]

Please look up its relative integration efficiency (log2): ATTTAACTATAACG G46T
-1.25

Let us now turn to TAAATTGATATTGC C34T
-1.32

Consider next the variant ATTTAACTATAACG T9A in the same way.
-0.86

Same question, ATTTAACTATAACG A24G this time
-0.674

Also need ATTTAACTATAACG A11T , thanks.
-0.284
